- Test system: membrane integrity (lactate dehydrogenase release)
- EXPERIMENT NOTES: Cytotoxicity test / membrane integrity assay (Promega Cytotox-One), lactate dehydrogenase release
- EXPERIMENTAL CONTEXT: concentration at which 50% of maximal lactate dehydrogenase release is reached
Please respond with reported CD50 for every item in the list.
Write the answer as a number in µM, unit excluded.

Qu. Given the compound CCCCCCCCCCCCCCCCCCOCC(COP(=O)([O-])OCC[N+](C)(C)C)OC (stereo not shown) [Compound 5, edelfosine, reference compound] , write its reported CD50.
Ans. 59.0

Qu. Provide only the value of recorded CD50 for CCCCCCCCCCCCCCCCOC[C@@H](O)COP(=O)([O-])OCC[N+](C)(C)C [Compound 13]
Ans. 58.8

Qu. Read off the recorded CD50 for CCCCCCCC/C=C/CCCCCCCCOP(=O)([O-])OCC[N+](C)(C)C [Compound 24, 1-elaidylphosphocholine (C18:1, trans)]
Ans. 59.6
